test-system: biotin-labeled human IL1RAP (human) (UniProt Q9NPH3)
Sequence (Q9NPH3 21-367 limits assumed): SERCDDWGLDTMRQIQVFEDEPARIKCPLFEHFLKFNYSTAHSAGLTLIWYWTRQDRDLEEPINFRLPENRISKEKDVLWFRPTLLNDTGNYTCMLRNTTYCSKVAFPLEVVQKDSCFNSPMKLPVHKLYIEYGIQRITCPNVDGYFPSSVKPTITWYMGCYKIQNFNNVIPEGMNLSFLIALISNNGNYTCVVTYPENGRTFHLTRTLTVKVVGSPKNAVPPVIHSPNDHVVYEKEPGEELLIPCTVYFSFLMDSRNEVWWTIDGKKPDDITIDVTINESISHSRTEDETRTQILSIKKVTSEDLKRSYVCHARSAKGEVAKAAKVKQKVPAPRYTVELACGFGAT
experiment-summary: competition ELISA; competitor: capture mAb117 coated; biotin-hIL1RAP
% inhibition values, listed per item
Your answer is read as %, so omit the unit and give the number.

Some binders with known % inhibition results, for comparison:
>  <binder>
murine mAb016 (antibody, V domains shown) VH: QVQLQQPGAELVRPGSSVKLSCKASGYTFTSYWMDWVKQRPGQGLEWIGNIYPSDSATHYNQKFKDKATLTIDKSSSTAYMQLSSLTSEDSAVYYCARDYYGSIGMDSWGQGTSVTVSS VL: DIQMTQSPSSLSASLGERVSLTCRASQEISDYLSWLQQKPDGTIKRLIYAASTLDSGVPKRFSGSRSGSDYSLTISSLESEDFADYYCLQYASFPWTFGGGTKLEIK

>  <readout-unit>
%

>  <% inhibition>
89

$$$$
>  <binder>
mAb063 (antibody, V domains shown) VH: EVQLQQSGPELVKPGASVKISCKASGYTFTDYYMNWVKQSHGKSLEWIGHINPNSGSTTYTEKFKDKATLTVDKSSSTAYMELRSLTSDDSAVYYCVRRIGKNWHCDVWGTGTTVTVSS VL: DIVLTQSPASLAVSLGQRATISCRASESVNFHGTHLMHWYQQKPGQAPKLLIYAASNLDSGVPARFSGSGSETDFTLNIHPVEEEDAATYFCQQSIEDPFTFGSGTYLEIK

>  <readout-unit>
%

>  <% inhibition>
92

$$$$
>  <binder>
murine mAb001 (antibody, V domains shown) VH: QVQLQQPGAELVRPGSSVKLSCKASGYTFTSYWMDWVKQRPGQGLEWIGNIYPSDSKTHYNQKFKDKATLTVDKSSSTAYMQLSSLTSEDSAVYYCARDYYGSIGMDYWGQGTSVTVSS VL: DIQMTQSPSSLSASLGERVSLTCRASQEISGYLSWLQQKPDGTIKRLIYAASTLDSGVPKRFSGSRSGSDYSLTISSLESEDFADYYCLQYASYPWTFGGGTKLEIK

>  <readout-unit>
%

>  <% inhibition>
82

$$$$
>  <binder>
murine mAb067 (antibody, V domains shown) VH: QVKLHQSGAELAKPGASVKMSCKASGYTFNSYWIHWVKQRPGQGLEWIGYNNPTSGYSEYNQKFTDKATLSADKSSSTAYMQLSSLTSEDSAVYYCVREYGDLFAYWGQGTLVTVSA VL: NIVMTQSPKSMSMSVGERVTLSCKASENVGYSVSWFQQKPDQSPKLLIYGASNRYTGVPDRFTGSGSATDFTLTISTVQAEDLADYHCGQIYIYPYTFGGGTKLEIK

>  <readout-unit>
%

>  <% inhibition>
91

$$$$
>  <binder>
murine mAb117 (antibody, V domains shown) VH: QAYLQQSGAELVRPGASVKMSCKASGYTFTSYNMHWVKQSPRQGLEWVGVFYLGNGDTSYNEKFKGKATLTVDKSSSTAYMQLSSLTSEDSAVYFCARPGGYANWYFDVWGTGTTVTVSS VL: DIVMTQSQKFMSTSVGDWVSVTCKASQNVGTEVSWYQQKPGQSPNTLIYSASYRHSGVPDRFTGSGSGTEFTLTITNVQSEDLADYFCQQYNSFPLTFGAGTKLDLK

>  <readout-unit>
%

>  <% inhibition>
95

$$$$

--- query ---
QUERY: Note % inhibition for the binder shown: murine mAb048 (antibody, V domains shown) VH: QVQLQQPGADLVKPGASVKLSCKAYGYTFFSYWMHWVRQRPGQGLEWIGMIHPNSGTTNNNEKFKSKATLTVDKSFSTAYMQLSSLTSEDSAVYYCARGYSNYDFDYWGQGTILTVSS VL: DIKMTQFPSSMYASLGERVTITCKASQDINTYLIWIQQKPGKSPKTLIYRANRLADGVPSRFSGSGSGQDSSLTISSLEHEDMGIYYCLQYDEFPYTFGGGTKLEIK
RESULT: 94
